# target_or_test_system: GST-JAK2(808-1132) (Homo sapiens, UniProt O60674)
# Construct: GST-JAK2(808-1132); purchased Invitrogen (Carlsbad, USA) #4288
# Sequence (O60674 808-1132): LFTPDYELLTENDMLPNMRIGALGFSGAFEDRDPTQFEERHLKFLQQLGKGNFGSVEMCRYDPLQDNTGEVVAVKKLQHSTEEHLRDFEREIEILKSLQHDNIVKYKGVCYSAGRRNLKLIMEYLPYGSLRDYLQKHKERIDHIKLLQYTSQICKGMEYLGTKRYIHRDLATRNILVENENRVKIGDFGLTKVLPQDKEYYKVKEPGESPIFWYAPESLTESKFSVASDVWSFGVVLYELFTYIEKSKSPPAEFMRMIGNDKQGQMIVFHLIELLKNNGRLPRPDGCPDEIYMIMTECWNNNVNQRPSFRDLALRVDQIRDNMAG
# assay_overview: JAK2 kinase assay (Caliper mobility shift, LabChip 3000)
# Assay type: biochemical
# Protocol: All four kinases of the JAK/TYK-kinase family were used as purified recombinant GST-fusion proteins, containing the active kinase domains. GST-JAK1 (866-1154), GST-JAK3(811-1124), and GST-TYK2(888-1187) were expressed and purified by affinity chromatography at the EPK biology unit. […] The terminated reactions were transferred to the Caliper LabChip 3000 reader and the turnover of each reaction was measured by determining the substrate/product ratio. […]
readout_label: pIC50
pIC50 here is simply -log10 of the concentration when that concentration is written in mol/L.

| molecule | target_or_test_system | pIC50 |
| --- | --- | --- |
| CN1CCN(C(=O)c2c(F)cc(-n3ccc4cnc(Nc5ccc(CN6CCOCC6)cc5)nc43)cc2F)CC1 | GST-JAK2(808-1132) (Homo sapiens, UniProt O60674) | 7.94 |
| O=C(c1cncc(Nc2ncc3ccn(-c4cc(F)c(CN5CCOCC5)c(F)c4)c3n2)c1)N1CCOCC1 | GST-JAK2(808-1132) (Homo sapiens, UniProt O60674) | 7.62 |
| COc1ccc(Nc2ncc3ccn(-c4ccc(C(=O)N5CCOCC5)c(F)c4)c3n2)cn1 | GST-JAK2(808-1132) (Homo sapiens, UniProt O60674) | 8.13 |
| CC(C)Oc1ccc(Nc2ncc3ccn(-c4ccc(N5CCCC5=O)cc4)c3n2)cc1 | GST-JAK2(808-1132) (Homo sapiens, UniProt O60674) | 7.94 |

Okay, now this molecule:
Identify measured pIC50 corresponding to Fc1cc(-n2ccc3cnc(Nc4ccc(OC5CCNC5)nc4)nc32)cc(F)c1CN1CCOCC1 (racemic)
8.44

---

# Tested on: JAK2-dependent nuclear translocation of STAT5-GFP in U-2 OS osteosarcoma cells
# assay_overview: STAT5 nuclear translocation assay (Cellomics), rhEpo stimulated U-2 OS STAT5-GFP cells
# Format: cell-based
# test_conditions: Homo sapiens, U2OS; STAT5 translocation pathway
readout_label: pIC50
Expect pIC50 as a plain number equal to -log10 of the molar concentration.

The cases that follow already have their pIC50 on record.
| molecule | readout_label | readout_number |
| --- | --- | --- |
| C[C@@H]1CN(c2ncc(Nc3ncc4ccn(-c5cc(F)c(CN6CCOCC6)c(F)c5)c4n3)cc2Cl)C[C@H](C)N1 | pIC50 | 7.92 |
| C[C@@H]1CN(Cc2ccc(Nc3ncc4ccn(-c5cc(F)c(CN6CCOCC6=O)c(F)c5)c4n3)cc2)C[C@H](C)N1 | pIC50 | 7.17 |
| Fc1cc(-n2ccc3cnc(Nc4ccc(C5CCNCC5)nc4)nc32)cc(F)c1CN1CCOCC1 | pIC50 | 7.42 |

Quick one: give measured pIC50 for Cc1cc(Nc2ncc3ccn(-c4cc(F)c(CN5CCS(=O)(=O)CC5)c(F)c4)c3n2)cc(C)c1OCCN1CCOCC1
9.40

Tell me its pIC50 given COC1CCN(Cc2cc(Nc3ncc4ccn(-c5cc(F)c(CN6CCOCC6)c(F)c5)c4n3)ccc2C)C1 (racemic) as the entry.
8.30

Recall and state the measured pIC50 for OC1CN(Cc2cc(Nc3ncc4ccn(-c5cc(F)c(CN6CCOCC6)c(F)c5)c4n3)ccc2Cl)C1 .
8.77

---

# target_or_test_system: GST-JAK2(808-1132) (Homo sapiens, UniProt O60674)
# Construct: GST-JAK2(808-1132); purchased Invitrogen (Carlsbad, USA) #4288
# assay_overview: JAK2 kinase assay (Caliper mobility shift, LabChip 3000)
# Assay type: biochemical
# test_conditions: Table 3
# Experimental: All four kinases of the JAK/TYK-kinase family were used as purified recombinant GST-fusion proteins, containing the active kinase domains. GST-JAK1 (866-1154), GST-JAK3(811-1124), and GST-TYK2(888-1187) were expressed and purified by affinity chromatography at the EPK biology unit. […] The terminated reactions were transferred to the Caliper LabChip 3000 reader and the turnover of each reaction was measured by determining the substrate/product ratio. […]
Listed below: pIC50 values for each entry.
Bear in mind: pIC50 is minus log10 of a mol/L concentration; give just that figure.

| molecular_string | pIC50 |
| --- | --- |
| Cc1ccc(Nc2ncc3ccn(-c4ccc(C(=O)N5CCN(CCO)CC5)cc4)c3n2)cc1C | 7.76 |
| C[C@@H]1CN(c2ccc(Nc3ncc4ccn(-c5ccc(NS(C)(=O)=O)cc5)c4n3)cn2)C[C@H](C)N1 | 8.49 |
| Cc1ccc(Nc2ncc3ccn(-c4ccc(C(=O)N5CCOCC5)cc4)c3n2)cn1 | 7.95 |

--- query ---
State, for GST-JAK2(808-1132) (Homo sapiens, UniProt O60674), measured pIC50 of the compound listed here: N#Cc1ccc(Nc2ncc3ccn(-c4ccc(C(=O)N5CCOCC5)cc4)c3n2)cn1
7.25

---

# target_or_test_system: GST-JAK2(808-1132) (Homo sapiens)
# Construct: GST-JAK2(808-1132); purchased Invitrogen (Carlsbad, USA) #4288
# assay_overview: JAK2 kinase assay (Caliper mobility shift, LabChip 3000)
# Assay type: biochemical
The reader will find reported pIC50 values listed item by item below.
pIC50 field: float, defined as -log10 of concentration (mol/L).

Worked cases, pIC50 given:
| compound | pIC50 |
| --- | --- |
| O=C(c1c(F)cc(-n2ccc3cnc(Nc4ccnc(N5CCNC6(CC6)C5)c4)nc32)cc1F)N1CCOCC1 [Example 281] | 7.62 |
| CCN1CCN(Cc2ccc(Nc3ncc4ccn(-c5cc(F)c(CN6CCOCC6)c(F)c5)c4n3)nc2)CC1 [Example 316] | 7.14 |
| Cc1ccc(Nc2ncc3ccn(-c4ccc(CC(=O)N5CCOCC5)cc4)c3n2)cc1C [Example 166] | 8.47 |

State its pIC50: CN1CCN(C(=O)c2ccc(Nc3ncc4ccn(-c5ccc(S(C)(=O)=O)cc5)c4n3)cc2Cl)CC1 [Example 94]
8.42

Quote pIC50 reported for Cc1ccc(Nc2ncc3ccn(-c4cc(F)c(CN5CCOCC5)c(F)c4)c3n2)cc1CN1CCOC2(COC2)C1 [Example 358] please.
8.14

Determine from records and report pIC50 for C[C@@H]1CN[C@@H](C)CN1c1ccc(Nc2ncc3ccn(-c4ccc(S(N)(=O)=O)cc4)c3n2)cn1 (racemic) [Example 357]
8.16

---

# target_or_test_system: GST-JAK2(808-1132) (Homo sapiens, UniProt O60674)
# Construct: GST-JAK2(808-1132); purchased Invitrogen (Carlsbad, USA) #4288
# assay_overview: JAK2 kinase assay (Caliper mobility shift, LabChip 3000)
# Type: biochemical
// pIC50 lookup, one value per entry
Please report pIC50 as the negative decimal logarithm of the molar concentration, giving only the number.

| compound | readout_label | readout_number |
| --- | --- | --- |
| CN(C)CCN(C)C(=O)c1ccc(Nc2ncc3ccn(-c4ccc(S(C)(=O)=O)cc4)c3n2)cc1 [Example 65] | pIC50 | 8.27 |
| Cc1ccc(Nc2ncc3ccn(-c4cc(F)c(CN5CCOCC5)c(F)c4)c3n2)cc1CN1CCNC2(CC2)C1 [Example 373] | pIC50 | 8.37 |

Now for a further compound.
Consider the compound CN1CCN(Cc2ccc(Nc3ncc4ccn(-c5cc(F)c(CN6CCOCC6)c(F)c5)c4n3)cc2C(F)(F)F)CC1 [Example 200] . State its measured pIC50.
8.43

---

# target_or_test_system: GST-JAK2(808-1132) (Homo sapiens)
# Construct: GST-JAK2(808-1132); purchased Invitrogen (Carlsbad, USA) #4288
# assay_overview: JAK2 kinase assay (Caliper mobility shift, LabChip 3000)
# Assay type: biochemical
Entries and their pIC50
// scale note: pIC50 = -log10(conc_M); give the bare number

| molecular_string | pIC50 |
| --- | --- |
| Cc1cc(Nc2ncc3ccn(-c4cc(F)c(CN5CCOCC5)c(F)c4)c3n2)ccc1F | 7.80 |
| Cc1cncc(Nc2ncc3ccn(-c4cc(F)c(C(=O)N5CCOCC5)c(F)c4)c3n2)c1 | 8.37 |
| CN1CCN(c2ccc(Nc3ncc4ccn(-c5cc(F)c(CN6CCS(=O)(=O)CC6)c(F)c5)c4n3)nc2)CC1 | 8.49 |
| O=C(c1c(F)cc(-n2ccc3cnc(Nc4ccncn4)nc32)cc1F)N1CCOCC1 | 5.98 |
| CS(=O)(=O)c1ccc(-n2ccc3cnc(Nc4ccc(F)c(C(F)(F)F)c4)nc32)cc1 | 6.37 |

Please report pIC50 for the following molecule: Fc1cc(-n2ccc3cnc(Nc4ccc(CN5CCN(C6CC6)CC5)cc4)nc32)cc(F)c1CN1CCOCC1
8.40

Give the reported value of pIC50 for this record: Cc1ccc(Nc2ncc3ccn(-c4ccc(C(=O)NCCN5CCOCC5)c(F)c4)c3n2)cc1C
7.52

Give me measured pIC50, please, for this molecule: Cc1cc(Nc2ncc3ccn(-c4ccc(S(C)(=O)=O)cc4)c3n2)ccc1F
7.74

Respond only with pIC50 recorded for Cc1ccc(Nc2ncc3ccn(-c4cc(F)c(CN5CCOCC5)c(F)c4)c3n2)cc1CN1C[C@@H](C)N[C@@H](C)C1
8.43
